Below, each entry is listed alongside its reported ADCC reporter huCCR8 Max Fold Induction.
- target_under_test: human CCR8 (chemokine receptor 8) (human, UniProt P51685 1-355)
- Sequence (P51685 whole entry): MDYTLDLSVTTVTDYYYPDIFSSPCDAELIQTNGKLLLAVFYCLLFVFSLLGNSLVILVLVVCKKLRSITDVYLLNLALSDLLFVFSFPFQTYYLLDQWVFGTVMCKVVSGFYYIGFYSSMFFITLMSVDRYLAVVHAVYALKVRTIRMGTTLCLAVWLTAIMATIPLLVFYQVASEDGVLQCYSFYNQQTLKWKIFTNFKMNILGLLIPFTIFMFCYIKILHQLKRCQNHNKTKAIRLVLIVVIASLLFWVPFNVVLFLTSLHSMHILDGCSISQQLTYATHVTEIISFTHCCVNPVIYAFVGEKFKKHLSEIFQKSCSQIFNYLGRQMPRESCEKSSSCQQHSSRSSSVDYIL
- test_summary: cell-based or functional assay

INSERT INTO measurements (binder, measurement_label, observed) VALUES
  ('AC-277371 (antibody, V domains shown) VH: EVQLVESGGGLVQPGGSLKLSCAASGFIFSNAVMYWVRQASGKGLEWVARIKTKFNNYATYYADAVKGRFTISRDDSKNMVYLQMNSLKTEDTAVYYCTAGDRNKPFAYWGQGTLVTVSS VL: ETVVTQSPATLSLSPGERATLSCRASGSVITLLHWFQQKPGQAPRLLIHGASNLESRVPARFSGSGSGTDFTLTISSLEPEDFATYFCQQSWNDPYTFGQGTKLEIKR', 'ADCC reporter huCCR8 Max Fold Induction', '12.7 fold'),
  ('AC-277357 (fucosylated) (antibody, human IgG1, kappa, V domains shown, AC-264700 with LCDR1 D27→T. Human IgG1 kappa) VH: EVQLVESGGGLVQPGGSLKLSCAASGFIFSNAVMYWVRQASGKGLEWVARIKTKFNNYATYYADAVKGRFTISRDDSKNMVYLQMNSLKTEDTAVYYCTAGDRNKPFAYWGQGTLVTVSS VL: ETVVTQSPATLSLSPGERATLSCRASTSVITLLHWFQQKPGQAPRLLIHGASNLESRVPARFSGSGSGTDFTLTISSLEPEDFATYFCQQSWNDPYTFGQGTKLEIKR', 'ADCC reporter huCCR8 Max Fold Induction', '15.7 fold'),
  ('AC-264700 (antibody, V domains shown) VH: EVQLVESGGGLVQPGGSLKLSCAASGFIFSNAVMYWVRQASGKGLEWVARIKTKFNNYATYYADSVKGRFTISRDDSKNMVYLQMNSLKTEDTAVYYCTAGDRNKPFAYWGQGTLVTVSS VL: ETVVTQSPATLSLSPGERATLSCRASDSVITLLHWFQQKPGQAPRLLIHGASNLESRVPARFSGSGSGTDFTLTISSLEPEDFATYFCQQSWNDPYTFGQGTKLEIKR', 'ADCC reporter huCCR8 Max Fold Induction', '12.8 fold');

Which measured ADCC reporter huCCR8 Max Fold Induction value corresponds to AC-277483 (antibody, V domains shown) VH: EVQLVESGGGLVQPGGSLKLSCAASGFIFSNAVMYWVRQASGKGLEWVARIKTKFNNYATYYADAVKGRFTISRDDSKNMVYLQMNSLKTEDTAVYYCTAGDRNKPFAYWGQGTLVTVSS VL: ETVVTQSPATLSLSPGERATLSCRASDAVITLLHWFQQKPGQAPRLLIHGASNLESRVPARFSGSGSGTDFTLTISSLEPEDFATYFCQQSWNDPYTFGQGTKLEIKR ?
13.6 fold
